Data credit: ChEMBL document CHEMBL2311532

biological target: Leukotriene A-4 hydrolase (Mus musculus, UniProt P24527); assay: Inhibition of LTA4H in CD1 mouse whole blood assessed as decrease in calcium ionophore-stimulated LTB4 production incubated for 15 mins prior to calcium ionophore challenge measured after 10 to 30 mins by enzyme immunoassay
Sequence (P24527 whole entry): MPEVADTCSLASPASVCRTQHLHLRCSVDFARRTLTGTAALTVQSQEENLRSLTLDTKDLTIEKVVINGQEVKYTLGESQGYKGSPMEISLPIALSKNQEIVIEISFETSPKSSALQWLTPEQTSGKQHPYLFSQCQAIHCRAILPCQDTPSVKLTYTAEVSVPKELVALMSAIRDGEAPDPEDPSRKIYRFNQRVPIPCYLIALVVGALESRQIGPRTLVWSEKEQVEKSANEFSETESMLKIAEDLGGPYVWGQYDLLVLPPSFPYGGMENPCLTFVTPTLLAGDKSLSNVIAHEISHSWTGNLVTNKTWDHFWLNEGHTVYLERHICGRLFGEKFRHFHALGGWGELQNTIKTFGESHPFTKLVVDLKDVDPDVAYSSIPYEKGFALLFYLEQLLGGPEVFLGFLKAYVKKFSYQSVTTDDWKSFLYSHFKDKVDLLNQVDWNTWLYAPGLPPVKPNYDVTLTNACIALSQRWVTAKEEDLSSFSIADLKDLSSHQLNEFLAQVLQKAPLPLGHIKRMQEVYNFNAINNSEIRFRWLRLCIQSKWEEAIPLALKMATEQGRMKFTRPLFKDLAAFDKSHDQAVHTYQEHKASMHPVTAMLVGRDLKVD
Collected IC50 values appear next to each entry.
measured_quantity: IC50 (nM)

[[record]]
compound = "CC(=O)N[C@H]1C[C@H]2CC[C@@H](C1)N2Cc1coc2cc(Oc3nc4ncccc4s3)ccc12"
measured_quantity = "IC50"
numeric_result = 9.8

[[record]]
compound = "CC(=O)N1CC2CC1CN2Cc1cc2cc(Oc3nc4ncccc4s3)ccc2o1 (centres undefined)"
measured_quantity = "IC50"
numeric_result = 27

[[record]]
compound = "O=C(O)C1CCN(Cc2coc3cc(Oc4nc5ncccc5s4)ccc23)CC1"
measured_quantity = "IC50"
numeric_result = 280

[[record]]
compound = "c1cnc2nc(Oc3ccc4c(CN5CCOCC5)coc4c3)sc2c1"
measured_quantity = "IC50"
numeric_result = 49

[[record]]
compound = "c1ccc2sc(Oc3ccc4c(CN5CCCCC5)coc4c3)nc2c1"
measured_quantity = "IC50"
numeric_result = 420

[[record]]
compound = "c1cnc2nc(Oc3ccc4cc(CN5CCCCC5)oc4c3)sc2c1"
measured_quantity = "IC50"
numeric_result = 140

[[record]]
compound = "CC(=O)N1C[C@@H]2C[C@H]1CN2Cc1coc2cc(Oc3nc4ncccc4s3)ccc12"
measured_quantity = "IC50"
numeric_result = 21

[[record]]
compound = "CC(=O)N1C[C@@H]2C[C@H]1CN2Cc1coc2cc(Oc3nc4ccccc4s3)ccc12"
measured_quantity = "IC50"
numeric_result = 250

[[record]]
compound = "CC(=O)NC1CCN(Cc2coc3cc(Oc4nc5ccccc5s4)ccc23)CC1"
measured_quantity = "IC50"
numeric_result = 100


====

Target: Leukotriene A-4 hydrolase (Homo sapiens)
Sequence (P09960 whole entry): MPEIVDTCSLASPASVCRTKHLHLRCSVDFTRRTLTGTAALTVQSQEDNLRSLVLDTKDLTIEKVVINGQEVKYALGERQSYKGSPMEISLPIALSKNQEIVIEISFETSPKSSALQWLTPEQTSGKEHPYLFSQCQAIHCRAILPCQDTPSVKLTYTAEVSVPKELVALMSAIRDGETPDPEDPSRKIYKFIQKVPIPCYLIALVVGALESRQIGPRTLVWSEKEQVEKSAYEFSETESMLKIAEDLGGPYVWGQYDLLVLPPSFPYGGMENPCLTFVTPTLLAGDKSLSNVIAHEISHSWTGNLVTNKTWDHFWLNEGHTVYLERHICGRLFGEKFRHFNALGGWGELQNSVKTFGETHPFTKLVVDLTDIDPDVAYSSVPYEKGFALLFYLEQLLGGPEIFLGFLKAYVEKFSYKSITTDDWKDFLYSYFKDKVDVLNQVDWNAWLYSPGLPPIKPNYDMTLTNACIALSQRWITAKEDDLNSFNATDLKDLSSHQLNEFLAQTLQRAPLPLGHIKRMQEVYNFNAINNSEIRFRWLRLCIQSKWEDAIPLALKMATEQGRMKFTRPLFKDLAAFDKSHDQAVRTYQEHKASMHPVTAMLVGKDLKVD
Assay: Inhibition of LTA4H in human whole blood assessed as decrease in LTB4 production
pIC50: −log10 of the molar value.
measured_quantity: pIC50

[[record]]
structure = "O=C1CCCN1C1CCN(Cc2coc3cc(Oc4nc5ncccc5s4)ccc23)CC1"
assay_target = "Leukotriene A-4 hydrolase (Homo sapiens)"
numeric_result = 7.21

